// reported protein stability index per item
Tested on: Saccharomyces cerevisiae;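 further: PSI is a weighted mean of sequencing reads over stability bins, variants kept only with over 10 reads, mCherry proximal and sfGFP distal, peptide attached via GGGS linker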
METHOD_DESCRIPTION: protein stability index of tFT-peptide fusion (C-terminal peptide) (PSI (0-1 scale)); higher = more stable (slower turnover)
CONDITION_SET: genetic background: wild type; temperature: 30 C
ENDPOINT_NAME: protein stability index

- SEQ_TEXT: "IHIFIIFRVQWK"
  ENDPOINT_NAME: "protein stability index"
  ENDPOINT_RESULT: 0.227
- SEQ_TEXT: "GITSFFSWSFLS"
  ENDPOINT_NAME: "protein stability index"
  ENDPOINT_RESULT: 0.237
- SEQ_TEXT: "VIKESKKKTKKI"
  ENDPOINT_NAME: "protein stability index"
  ENDPOINT_RESULT: 0.544
- SEQ_TEXT: "GFPPSPPPPSPL"
  ENDPOINT_NAME: "protein stability index"
  ENDPOINT_RESULT: 0.741
- SEQ_TEXT: "EYISNLLSSPEP"
  ENDPOINT_NAME: "protein stability index"
  ENDPOINT_RESULT: 0.633
- SEQ_TEXT: "PPLPPSPRLLPP"
  ENDPOINT_NAME: "protein stability index"
  ENDPOINT_RESULT: 0.635
- SEQ_TEXT: "IKKSMKSLTRTE"
  ENDPOINT_NAME: "protein stability index"
  ENDPOINT_RESULT: 0.735
- SEQ_TEXT: "PPSPPSPPPPLP"
  ENDPOINT_NAME: "protein stability index"
  ENDPOINT_RESULT: 0.69
- SEQ_TEXT: "PGNKHYRARNGA"
  ENDPOINT_NAME: "protein stability index"
  ENDPOINT_RESULT: 0.678
- SEQ_TEXT: "GFYEVLRNMFVI"
  ENDPOINT_NAME: "protein stability index"
  ENDPOINT_RESULT: 0.589
- SEQ_TEXT: "LPRRDPGPSKEP"
  ENDPOINT_NAME: "protein stability index"
  ENDPOINT_RESULT: 0.666
- SEQ_TEXT: "SFFGPLADEIID"
  ENDPOINT_NAME: "protein stability index"
  ENDPOINT_RESULT: 0.73
- SEQ_TEXT: "REKERKRGKAVK"
  ENDPOINT_NAME: "protein stability index"
  ENDPOINT_RESULT: 0.698
- SEQ_TEXT: "GSSYRKNDRQEK"
  ENDPOINT_NAME: "protein stability index"
  ENDPOINT_RESULT: 0.723
- SEQ_TEXT: "CLSLLWRVLDLW"
  ENDPOINT_NAME: "protein stability index"
  ENDPOINT_RESULT: 0.688
- SEQ_TEXT: "EGKWCGVKRGVY"
  ENDPOINT_NAME: "protein stability index"
  ENDPOINT_RESULT: 0.627
- SEQ_TEXT: "ERRGSLSWPIPP"
  ENDPOINT_NAME: "protein stability index"
  ENDPOINT_RESULT: 0.722
- SEQ_TEXT: "RVLPPAPLQALQ"
  ENDPOINT_NAME: "protein stability index"
  ENDPOINT_RESULT: 0.645
- SEQ_TEXT: "SNFCIWRWWLGF"
  ENDPOINT_NAME: "protein stability index"
  ENDPOINT_RESULT: 0.686
- SEQ_TEXT: "WFLMVILYTVYG"
  ENDPOINT_NAME: "protein stability index"
  ENDPOINT_RESULT: 0.299
- SEQ_TEXT: "PPPSCPLSPPRL"
  ENDPOINT_NAME: "protein stability index"
  ENDPOINT_RESULT: 0.668
- SEQ_TEXT: "RFMDPFSGITAF"
  ENDPOINT_NAME: "protein stability index"
  ENDPOINT_RESULT: 0.716
- SEQ_TEXT: "PSHPAPGPSTRQ"
  ENDPOINT_NAME: "protein stability index"
  ENDPOINT_RESULT: 0.673
- SEQ_TEXT: "FRGAGAEGSGWG"
  ENDPOINT_NAME: "protein stability index"
  ENDPOINT_RESULT: 0.634
- SEQ_TEXT: "LWGFVEAIGSVL"
  ENDPOINT_NAME: "protein stability index"
  ENDPOINT_RESULT: 0.705
- SEQ_TEXT: "ASPPPPRISAWL"
  ENDPOINT_NAME: "protein stability index"
  ENDPOINT_RESULT: 0.716
- SEQ_TEXT: "GGSGGRDGLCVG"
  ENDPOINT_NAME: "protein stability index"
  ENDPOINT_RESULT: 0.738
- SEQ_TEXT: "VTPVPFRTMMST"
  ENDPOINT_NAME: "protein stability index"
  ENDPOINT_RESULT: 0.571
- SEQ_TEXT: "KDRKKYIMTKPS"
  ENDPOINT_NAME: "protein stability index"
  ENDPOINT_RESULT: 0.627
- SEQ_TEXT: "SLGCIPLVDFLR"
  ENDPOINT_NAME: "protein stability index"
  ENDPOINT_RESULT: 0.668
- SEQ_TEXT: "LGDVRRENKQLP"
  ENDPOINT_NAME: "protein stability index"
  ENDPOINT_RESULT: 0.698
- SEQ_TEXT: "IDPVVFCEYTHA"
  ENDPOINT_NAME: "protein stability index"
  ENDPOINT_RESULT: 0.688
- SEQ_TEXT: "RLGERGAKPQGR"
  ENDPOINT_NAME: "protein stability index"
  ENDPOINT_RESULT: 0.635
- SEQ_TEXT: "LPLPHPRLPPRP"
  ENDPOINT_NAME: "protein stability index"
  ENDPOINT_RESULT: 0.684
- SEQ_TEXT: "SATPFSTEVCPL"
  ENDPOINT_NAME: "protein stability index"
  ENDPOINT_RESULT: 0.631
- SEQ_TEXT: "PWTAGQGWATIP"
  ENDPOINT_NAME: "protein stability index"
  ENDPOINT_RESULT: 0.688
- SEQ_TEXT: "GGMEGRVACSAQ"
  ENDPOINT_NAME: "protein stability index"
  ENDPOINT_RESULT: 0.74
- SEQ_TEXT: "PPPPDLPYPLPL"
  ENDPOINT_NAME: "protein stability index"
  ENDPOINT_RESULT: 0.754
- SEQ_TEXT: "SNKATNEGNVNV"
  ENDPOINT_NAME: "protein stability index"
  ENDPOINT_RESULT: 0.68
- SEQ_TEXT: "RNARSPACRTRR"
  ENDPOINT_NAME: "protein stability index"
  ENDPOINT_RESULT: 0.748
- SEQ_TEXT: "RRLEPGVAWFPT"
  ENDPOINT_NAME: "protein stability index"
  ENDPOINT_RESULT: 0.661
- SEQ_TEXT: "RGWVGGGSSAWS"
  ENDPOINT_NAME: "protein stability index"
  ENDPOINT_RESULT: 0.651
- SEQ_TEXT: "WKSSRSRCIHGE"
  ENDPOINT_NAME: "protein stability index"
  ENDPOINT_RESULT: 0.707
- SEQ_TEXT: "VFGRHSNRSPLY"
  ENDPOINT_NAME: "protein stability index"
  ENDPOINT_RESULT: 0.808
- SEQ_TEXT: "FHRHILCSDPRL"
  ENDPOINT_NAME: "protein stability index"
  ENDPOINT_RESULT: 0.709
- SEQ_TEXT: "RGSILTTVNPPR"
  ENDPOINT_NAME: "protein stability index"
  ENDPOINT_RESULT: 0.75
- SEQ_TEXT: "YLSGHLGCRVRV"
  ENDPOINT_NAME: "protein stability index"
  ENDPOINT_RESULT: 0.651
- SEQ_TEXT: "PPPPARSPLTPL"
  ENDPOINT_NAME: "protein stability index"
  ENDPOINT_RESULT: 0.725
- SEQ_TEXT: "PCYRPPLPALLS"
  ENDPOINT_NAME: "protein stability index"
  ENDPOINT_RESULT: 0.501
- SEQ_TEXT: "VSGLGAHEPDKL"
  ENDPOINT_NAME: "protein stability index"
  ENDPOINT_RESULT: 0.667
- SEQ_TEXT: "GIGGSGLVSVVD"
  ENDPOINT_NAME: "protein stability index"
  ENDPOINT_RESULT: 0.716
- SEQ_TEXT: "KYDSPFFNWCSQ"
  ENDPOINT_NAME: "protein stability index"
  ENDPOINT_RESULT: 0.579
- SEQ_TEXT: "YCSIVRSLGSPL"
  ENDPOINT_NAME: "protein stability index"
  ENDPOINT_RESULT: 0.698
- SEQ_TEXT: "GKPSEMSMREDS"
  ENDPOINT_NAME: "protein stability index"
  ENDPOINT_RESULT: 0.704
- SEQ_TEXT: "MRPRTSKKPQLE"
  ENDPOINT_NAME: "protein stability index"
  ENDPOINT_RESULT: 0.744
- SEQ_TEXT: "GVPPFSPPPPPH"
  ENDPOINT_NAME: "protein stability index"
  ENDPOINT_RESULT: 0.683
- SEQ_TEXT: "KKKKKKQKKKIQ"
  ENDPOINT_NAME: "protein stability index"
  ENDPOINT_RESULT: 0.741
- SEQ_TEXT: "RVNQRRATSEKT"
  ENDPOINT_NAME: "protein stability index"
  ENDPOINT_RESULT: 0.677
- SEQ_TEXT: "AKVRGGKGLRLV"
  ENDPOINT_NAME: "protein stability index"
  ENDPOINT_RESULT: 0.669
- SEQ_TEXT: "ILTCGARSSICD"
  ENDPOINT_NAME: "protein stability index"
  ENDPOINT_RESULT: 0.639
- SEQ_TEXT: "KKREEKKEKRKR"
  ENDPOINT_NAME: "protein stability index"
  ENDPOINT_RESULT: 0.643
- SEQ_TEXT: "GVSPSPPSPPPH"
  ENDPOINT_NAME: "protein stability index"
  ENDPOINT_RESULT: 0.741
- SEQ_TEXT: "KVFWRPAWVAEV"
  ENDPOINT_NAME: "protein stability index"
  ENDPOINT_RESULT: 0.371
- SEQ_TEXT: "PPPTPPSPPRPH"
  ENDPOINT_NAME: "protein stability index"
  ENDPOINT_RESULT: 0.71
- SEQ_TEXT: "RRIKIRKQEYIS"
  ENDPOINT_NAME: "protein stability index"
  ENDPOINT_RESULT: 0.313
- SEQ_TEXT: "LPPLAYALLPPL"
  ENDPOINT_NAME: "protein stability index"
  ENDPOINT_RESULT: 0.571
- SEQ_TEXT: "HVRLSCTRGMVI"
  ENDPOINT_NAME: "protein stability index"
  ENDPOINT_RESULT: 0.695
- SEQ_TEXT: "GTTLGEVVCGVL"
  ENDPOINT_NAME: "protein stability index"
  ENDPOINT_RESULT: 0.683
- SEQ_TEXT: "DRLGGDWMERGG"
  ENDPOINT_NAME: "protein stability index"
  ENDPOINT_RESULT: 0.688
- SEQ_TEXT: "HANPGTFGPCTR"
  ENDPOINT_NAME: "protein stability index"
  ENDPOINT_RESULT: 0.696
- SEQ_TEXT: "SISVLSSSSLGF"
  ENDPOINT_NAME: "protein stability index"
  ENDPOINT_RESULT: 0.741
- SEQ_TEXT: "KTNLGNTKVKKK"
  ENDPOINT_NAME: "protein stability index"
  ENDPOINT_RESULT: 0.613
- SEQ_TEXT: "VLCKDGHRGFGC"
  ENDPOINT_NAME: "protein stability index"
  ENDPOINT_RESULT: 0.589
- SEQ_TEXT: "VGRRTRGHDGVT"
  ENDPOINT_NAME: "protein stability index"
  ENDPOINT_RESULT: 0.659
- SEQ_TEXT: "GSGPPVGNGLIV"
  ENDPOINT_NAME: "protein stability index"
  ENDPOINT_RESULT: 0.717
- SEQ_TEXT: "RDNKTHSKRAYG"
  ENDPOINT_NAME: "protein stability index"
  ENDPOINT_RESULT: 0.648
- SEQ_TEXT: "GSCLLCGACGCR"
  ENDPOINT_NAME: "protein stability index"
  ENDPOINT_RESULT: 0.692
- SEQ_TEXT: "VFGFSLLTLLVL"
  ENDPOINT_NAME: "protein stability index"
  ENDPOINT_RESULT: 0.439
- SEQ_TEXT: "YFRYGLELVTFG"
  ENDPOINT_NAME: "protein stability index"
  ENDPOINT_RESULT: 0.5
- SEQ_TEXT: "RHAVNAQPVARP"
  ENDPOINT_NAME: "protein stability index"
  ENDPOINT_RESULT: 0.647
- SEQ_TEXT: "PLPFPPPLPSHR"
  ENDPOINT_NAME: "protein stability index"
  ENDPOINT_RESULT: 0.767
- SEQ_TEXT: "NSLLSFLPDPFH"
  ENDPOINT_NAME: "protein stability index"
  ENDPOINT_RESULT: 0.749
